# System Tested: Human TRPC6 (Homo sapiens, UniProt Q9Y210)
# Construct: expressed in transfected cells
# Experiment Notes: Evaluation of TRPC6 channel inhibitory activity (1), FLIPR Calcium 5 Assay Kit, OAG stimulation (Compound Nos. 1-1293)
# Format: cell-based
# Protocol Conditions: Human TRPC6 stably-expressing cells, OAG 30 μM, FLIPR Calcium 5 Assay Kit; read-out: Inhibitory activity (pIC50 class) (converted)
Property Name: IC50

INSERT INTO measurements (compound, value_observed) VALUES
  ('Cc1nc(Oc2cc(C#N)ccc2-c2ccc(CCN)cn2)cc(N2CCN(S(C)(=O)=O)CC2)n1', '> 1000 nM'),
  ('Cn1nc(-c2ccccc2)cc1Oc1cc(C#N)ccc1-c1cnc(C(O)CN)cn1 (stereo not shown)', '< 10 nM'),
  ('Cn1ccnc1-c1cc(Oc2cc(C#N)ccc2-c2ncc(CN)cn2)n(C)n1', '10 to 1000 nM'),
  ('CN(CCF)c1cc(Oc2cc(C#N)ccc2-c2ncc(CCN)cn2)n(C)n1', '< 10 nM');

====

# System Tested: Human TRPC6 (Homo sapiens, UniProt Q9Y210)
# Construct: expressed in transfected cells
# Sequence (Q9Y210 1-931): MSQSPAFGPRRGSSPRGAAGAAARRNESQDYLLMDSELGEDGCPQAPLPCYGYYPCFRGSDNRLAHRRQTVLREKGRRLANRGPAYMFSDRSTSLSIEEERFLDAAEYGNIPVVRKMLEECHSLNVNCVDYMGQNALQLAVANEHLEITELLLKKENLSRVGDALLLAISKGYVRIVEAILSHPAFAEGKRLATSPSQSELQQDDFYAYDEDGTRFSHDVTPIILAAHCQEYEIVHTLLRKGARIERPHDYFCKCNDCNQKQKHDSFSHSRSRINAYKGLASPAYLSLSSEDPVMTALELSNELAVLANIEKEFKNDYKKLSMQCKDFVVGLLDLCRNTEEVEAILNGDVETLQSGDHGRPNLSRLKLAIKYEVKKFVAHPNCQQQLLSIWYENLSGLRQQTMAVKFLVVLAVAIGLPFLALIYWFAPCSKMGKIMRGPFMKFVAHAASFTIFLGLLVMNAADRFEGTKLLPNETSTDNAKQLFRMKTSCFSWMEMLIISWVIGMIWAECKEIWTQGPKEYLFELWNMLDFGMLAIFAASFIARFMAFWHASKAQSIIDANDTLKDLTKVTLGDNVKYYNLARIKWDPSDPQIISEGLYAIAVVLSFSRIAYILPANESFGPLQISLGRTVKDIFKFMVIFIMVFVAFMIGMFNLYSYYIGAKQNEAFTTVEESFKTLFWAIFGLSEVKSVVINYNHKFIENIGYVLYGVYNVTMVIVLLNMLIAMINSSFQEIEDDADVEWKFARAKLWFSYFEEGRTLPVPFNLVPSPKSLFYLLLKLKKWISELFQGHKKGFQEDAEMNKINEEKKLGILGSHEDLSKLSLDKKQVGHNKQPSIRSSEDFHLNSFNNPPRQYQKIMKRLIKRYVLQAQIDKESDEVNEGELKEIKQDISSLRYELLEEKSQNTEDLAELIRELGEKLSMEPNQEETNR
# Experiment Notes: Evaluation of TRPC6 channel inhibitory activity (1), FLIPR Calcium 5 Assay Kit, OAG stimulation (Compound Nos. 1-1293)
# Format: cell-based
# Protocol Conditions: Human TRPC6 stably-expressing cells, OAG 30 μM, FLIPR Calcium 5 Assay Kit; read-out: Inhibitory activity (pIC50 class) (converted)
Below, each entry is listed alongside its reported IC50.
Property Name: IC50

INSERT INTO assay_data (molecule, property_name, value_observed) VALUES
  ('N#Cc1ccc(-c2ccc(CN)cn2)c(Oc2cnnc(N3CCCC3)c2)c1 [compound 696]', 'IC50', '< 10 nM'),
  ('CNC[C@H](O)c1cnn(-c2ccc(C#N)cc2Oc2cc(-c3ccccc3)nc(C)n2)c1 [Compound 231]', 'IC50', '< 10 nM'),
  ('CN(C)c1cc(Oc2cc(F)ccc2-c2ccc(CN)cn2)n(C)n1 [compound 998]', 'IC50', '10 to 1000 nM'),
  ('CN(C)c1cc(Oc2cc(C#N)ccc2-c2ccc([C@H](O)CN)cn2)n(C)n1 [compound 546]', 'IC50', '10 to 1000 nM'),
  ('Cc1cc(Oc2cc(C#N)ccc2-c2ccc(CN)cn2)cc(N2CCOCC2)n1 [compound 329]', 'IC50', '< 10 nM'),
  ('N#Cc1ccc(-c2ccc(C(O)CN)cn2)c(Oc2cc(C3CC3)nn2CC(F)(F)F)c1 (stereo not drawn) [compound 370]', 'IC50', '< 10 nM'),
  ('Cn1nc(C2CCCO2)cc1Oc1cc(C#N)ccc1-c1ncc(CCN)cn1 (stereo not drawn) [compound 483]', 'IC50', '< 10 nM'),
  ('COCCOc1cc(Oc2cc(C#N)ccc2-c2ncc(CCN)cn2)cc(C)n1 [compound 492]', 'IC50', '10 to 1000 nM'),
  ('Cc1cc(Oc2cc(C#N)ccc2-c2ccc([C@H](O)CN)cn2)cc(-c2ccccn2)n1 [compound 691]', 'IC50', '< 10 nM'),
  ('Cn1nc(Oc2cc(C#N)ccc2-c2ccc(CCN)cn2)cc1N1CCOCC1 [compound 557]', 'IC50', '10 to 1000 nM'),
  ('Cc1nc(N2CCOCC2)sc1C(=O)c1cc(C#N)ccc1-c1ccc(CCN)cn1 [compound 1076]', 'IC50', '< 10 nM'),
  ('N#Cc1ccc(-c2ncc(CN)cn2)c(Oc2cnnc(-n3ccccc3=O)c2)c1 [compound 820]', 'IC50', '> 1000 nM');

====

Below, each entry is listed alongside its reported IC50.
# System Tested: Human TRPC6 (Homo sapiens, UniProt Q9Y210)
# Construct: expressed in transfected cells
# Experiment Notes: Evaluation of TRPC6 channel inhibitory activity (1), FLIPR Calcium 5 Assay Kit, OAG stimulation (Compound Nos. 1-1293)
# Format: cell-based
# Protocol Conditions: Human TRPC6 stably-expressing cells, OAG 30 μM, FLIPR Calcium 5 Assay Kit; read-out: Inhibitory activity (pIC50 class) (converted)
Property Name: IC50

INSERT INTO assay_data (compound, property_name, value_observed) VALUES
  ('Cc1nc(Oc2cc(C#N)ccc2-c2ncc(CCN)cn2)cc(N2CC(F)(F)C2)n1', 'IC50', '< 10 nM'),
  ('Cn1nc(N2CCOCC2)cc1C(=O)c1cc(F)ccc1-c1ncc(CCN)cn1', 'IC50', '< 10 nM'),
  ('Cc1nn(CC(C)C)cc1Cc1cc(F)ccc1-c1ncc(CCN)cn1', 'IC50', '10 to 1000 nM'),
  ('Cc1cccc(-c2cn(Cc3cc(C#N)ccc3-c3ccc(CCN)cn3)c(C)n2)c1', 'IC50', '< 10 nM'),
  ('Cc1nc(Oc2cc(C#N)ccc2-n2cc([C@@H](O)CN)cn2)cc(N2CCCC(C)(C)C2)n1', 'IC50', '10 to 1000 nM'),
  ('CCC(OC)c1cn(Cc2cc(C#N)ccc2-c2ncc(CCN)cn2)c(C)n1 (stereo not shown)', 'IC50', '10 to 1000 nM'),
  ('N#Cc1ccc(-n2cc(CCN)cn2)c(Sc2cnnc(N3CCOCC3)c2)c1', 'IC50', '10 to 1000 nM'),
  ('Cn1nc(N2CCCCC2)cc1Cc1cc(C#N)ccc1-c1ncc(CN)cn1', 'IC50', '10 to 1000 nM'),
  ('Cn1nc(-c2cccc(F)c2)cc1Oc1cc(C#N)ccc1-c1ccc(CCN)nc1', 'IC50', '< 10 nM'),
  ('Cc1nc(Oc2cc(C#N)ccc2-c2ccc3c(c2)CNCC3)cc(N2CCOCC2)n1', 'IC50', '> 1000 nM'),
  ('N#Cc1ccc(-c2ncc(CCN)cn2)c([S+]([O-])c2cnnc(-c3ccccc3)c2)c1 (stereo not shown)', 'IC50', '> 1000 nM'),
  ('Cc1nc(Oc2cc(C#N)ccc2-c2ncc(CN)cn2)cc(N2CCCC2=O)n1', 'IC50', '> 1000 nM'),
  ('Cc1nc(Oc2cc(C#N)ccc2-c2ncc(CCN)cn2)cc(N(C)C(C)C)n1', 'IC50', '< 10 nM'),
  ('CCC(N)c1cnc(-c2ccc(C#N)cc2Oc2cc(-c3ccccn3)nn2C)nc1 (stereo not shown)', 'IC50', '< 10 nM'),
  ('N#Cc1ccc(-c2ncc([C@H](O)CN)cn2)c(Oc2cc(C3CC3)nn2CC(F)(F)F)c1', 'IC50', '10 to 1000 nM'),
  ('Cc1nc(CN(C)C)cn1Cc1cc(C#N)ccc1-c1ncc(CCN)cn1', 'IC50', '> 1000 nM'),
  ('Cc1nc(Oc2cc(C#N)ccc2-c2ncc(CN)cn2)cc(N2CC(F)(F)C2)n1', 'IC50', '10 to 1000 nM'),
  ('Cc1nc(Oc2cc(C#N)ccc2-c2ccc(CCN)cc2)cc(N2CCC[C@H]2C#N)n1', 'IC50', '< 10 nM'),
  ('CN(CC(F)F)c1cc(Oc2cc(F)ccc2-c2ncc(CN)cn2)n(C)n1', 'IC50', '10 to 1000 nM'),
  ('Cc1cc(Oc2cc(C#N)ccc2-c2ccc([C@H](O)CN)cn2)cc(OCCOC(C)C)n1', 'IC50', '> 1000 nM'),
  ('Cn1nc(C2CC2)cc1Oc1cc(C#N)ccc1-c1ncc(NCCN)cn1', 'IC50', '< 10 nM'),
  ('CCCN(C)c1cc(Oc2cc(C#N)ccc2-c2ncc(CCN)cn2)n(C)n1', 'IC50', '< 10 nM'),
  ('Cc1cc(Oc2cc(C#N)ccc2-c2ccc(CN)n3cnnc23)cc(N2CCOCC2)n1', 'IC50', '> 1000 nM'),
  ('N#Cc1ccc(-c2ncc(CN)cn2)c(Oc2cnnc(OC3CCCC3)c2)c1', 'IC50', '10 to 1000 nM'),
  ('Cc1nc(Oc2cc(C#N)ccc2-n2cc3c(n2)CNCC3)cc(N2CCCCC2)n1', 'IC50', '> 1000 nM');
